Molecular target: human chemokine receptor 2 isoform B (Homo sapiens, UniProt P41597)
Sequence (P41597 1-360 isoform P41597-2): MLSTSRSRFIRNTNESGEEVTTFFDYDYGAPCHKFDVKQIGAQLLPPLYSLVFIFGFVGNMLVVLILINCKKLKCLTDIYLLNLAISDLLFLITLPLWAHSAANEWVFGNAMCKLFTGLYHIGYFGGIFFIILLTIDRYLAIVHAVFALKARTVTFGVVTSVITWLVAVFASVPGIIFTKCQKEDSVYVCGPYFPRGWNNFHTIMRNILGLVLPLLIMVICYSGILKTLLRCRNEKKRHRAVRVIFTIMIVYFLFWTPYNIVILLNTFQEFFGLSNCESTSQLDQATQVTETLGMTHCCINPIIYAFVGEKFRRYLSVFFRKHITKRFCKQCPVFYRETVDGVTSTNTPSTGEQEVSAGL
Assay: Calcium mobilization assay (FLIPR, CHOK1-CCR2B-A5 cells, 20 nM MCP-1)
Settings: Ca mobilisation assay, CCR2, antagonist activity vs 20 nM MCP-1
Description: CHOK1-CCR2B-A5 cells (from Euroscreen) stably overexpressing the human chemokine receptor 2 isoform B were cultured in Nutrient Hams F12 medium supplemented with 5% FBS, 100 U/ml penicillin, 100 μg/ml streptomycin, 400 μg/ml G418 and 5 μg/ml puromycin. […] Test compounds were added to the assay plate and agonist activity was monitored as fluorescence for 80 seconds with a FLIPR (488 nm excitation; 510-570 nm emission; Molecular Devices). […]
The entries below come with measured IC50 values attached.
Answer in nM, number only, no unit symbol.

molecule: O=C(/C=C/c1ccc(Cl)c(Cl)c1)N1CCC(=O)N(CC(O)CN2CCC(CO)CC2)CC1 (racemic)
experimentalTarget: human chemokine receptor 2 isoform B (Homo sapiens, UniProt P41597)
valueReported: 404
--
molecule: O=C(/C=C/c1ccc(Cl)c(Cl)c1)N1CCC(=O)N(CCCCN2CCCCC2)CC1
experimentalTarget: human chemokine receptor 2 isoform B (Homo sapiens, UniProt P41597)
valueReported: 140
--
molecule: COCC1CCN(CCCCN2CCN(C(=O)/C=C/c3ccc(F)c(Cl)c3)CCC2=O)CC1
experimentalTarget: human chemokine receptor 2 isoform B (Homo sapiens, UniProt P41597)
valueReported: 95
--
molecule: COC[C@H]1CCN(CCCCN2CCN(C(=O)/C=C/c3ccc(Cl)c(Cl)c3)CCC2=O)C[C@H]1OC (racemic)
experimentalTarget: human chemokine receptor 2 isoform B (Homo sapiens, UniProt P41597)
valueReported: 85
--
molecule: O=C(/C=C/c1ccc(Cl)c(Cl)c1)N1CCC(=O)N(CC(O)CN2CCCCC2CO)CC1 (racemic)
experimentalTarget: human chemokine receptor 2 isoform B (Homo sapiens, UniProt P41597)
valueReported: 199
--
molecule: CC1CCCCN1CC(O)CCN1CCN(C(=O)/C=C/c2ccc(Cl)c(Cl)c2)CCC1=O (racemic)
experimentalTarget: human chemokine receptor 2 isoform B (Homo sapiens, UniProt P41597)
valueReported: 274
--
molecule: O=C(/C=C/c1ccc(Cl)c(Cl)c1)N1CCC(=O)N(CCCCN2CCC(O)C(CO)C2)CC1 (racemic)
experimentalTarget: human chemokine receptor 2 isoform B (Homo sapiens, UniProt P41597)
valueReported: 243
--
molecule: O=C(/C=C/c1ccc(Cl)c(Cl)c1)N1CCC(=O)N(CCCCN2CCC(O)CC2)CC1
experimentalTarget: human chemokine receptor 2 isoform B (Homo sapiens, UniProt P41597)
valueReported: 119

Note: attention shifts to another entry.
Fill in: human chemokine receptor 2 isoform B (Homo sapiens, UniProt P41597) IC50 for CC1(CO)CCCN1CCCCN1CCN(C(=O)/C=C/c2ccc(Cl)c(Cl)c2)CCC1=O (racemic) = 41
